# Metabolic stability (Qh %), % hepatic blood flow per entry
- test protocol: Human liver microsome (HLM) metabolic stability assay
- Format: in vitro ADME
- test settings: human liver microsomes

Study these solved cases before continuing.
compound | experimental result
Cc1cc(COc2c(C)cccc2-c2csc(N3C[C@@H]4C[C@]4(C(=O)O)C3)n2)cc2c1CN(C1COC1)CC2 | <24%
Cc1cccc(-c2csc(N3C[C@@H]4C[C@]4(C(=O)O)C3)n2)c1OCc1ccc2c(c1C)CCN(C1COC1)C2 | <24%
COC[C@H]1N(c2cccc(-c3cccc(C)c3OCc3ccc4c(c3)CCN(C3CCOC3)C4)n2)C[C@@H]2C[C@@]21C(=O)O (mixture of isomers) | <24%
COC[C@H]1N(c2cccc(-c3cccc(C)c3OCc3cc(C)c4c(c3)CN(C3CCOCC3)C4)n2)C[C@@H]2C[C@@]21C(=O)O | <24%
CO[C@H]1CN(c2cccc(-c3cccc(Cl)c3OCc3cc(C)c4c(c3)CCN(C3CCOCC3)C4)n2)CC[C@H]1C(=O)O | 33%

Switching to the query record.
Sample `Cc1ccc(OCc2ccc3c(c2C)CCN(C2CCOCC2)C3)c(-c2cccc(N3CC[C@@]4(C(=O)O)C[C@H]4C3)n2)c1` — what was its Metabolic stability (Qh %), % hepatic blood flow?
34%

---

- target desc: human soluble guanylate cyclase alpha 1 and beta 1 subunits (sGC) (Homo sapiens (Human), UniProt Q02108+Q02153)
- Sequence (Q02108 whole entry partner): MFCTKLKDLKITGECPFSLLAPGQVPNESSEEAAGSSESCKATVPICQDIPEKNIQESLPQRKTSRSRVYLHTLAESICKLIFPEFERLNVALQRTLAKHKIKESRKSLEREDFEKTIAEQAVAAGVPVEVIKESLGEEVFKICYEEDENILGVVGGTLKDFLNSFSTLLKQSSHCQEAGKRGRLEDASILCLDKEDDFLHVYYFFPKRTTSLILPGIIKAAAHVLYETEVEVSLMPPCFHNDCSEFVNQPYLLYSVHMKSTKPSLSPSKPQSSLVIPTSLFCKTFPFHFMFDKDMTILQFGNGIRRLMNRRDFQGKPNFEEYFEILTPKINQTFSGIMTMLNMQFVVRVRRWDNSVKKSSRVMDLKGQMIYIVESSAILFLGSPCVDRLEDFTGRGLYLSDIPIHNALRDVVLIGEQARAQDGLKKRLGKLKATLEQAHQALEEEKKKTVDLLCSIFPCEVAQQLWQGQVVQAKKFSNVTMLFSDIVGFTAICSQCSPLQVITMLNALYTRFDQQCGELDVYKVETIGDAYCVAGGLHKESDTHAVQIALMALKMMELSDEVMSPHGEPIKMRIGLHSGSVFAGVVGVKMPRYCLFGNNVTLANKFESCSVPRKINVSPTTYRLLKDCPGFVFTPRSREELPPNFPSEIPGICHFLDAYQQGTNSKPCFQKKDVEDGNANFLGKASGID
- Sequence (Q02153 whole entry): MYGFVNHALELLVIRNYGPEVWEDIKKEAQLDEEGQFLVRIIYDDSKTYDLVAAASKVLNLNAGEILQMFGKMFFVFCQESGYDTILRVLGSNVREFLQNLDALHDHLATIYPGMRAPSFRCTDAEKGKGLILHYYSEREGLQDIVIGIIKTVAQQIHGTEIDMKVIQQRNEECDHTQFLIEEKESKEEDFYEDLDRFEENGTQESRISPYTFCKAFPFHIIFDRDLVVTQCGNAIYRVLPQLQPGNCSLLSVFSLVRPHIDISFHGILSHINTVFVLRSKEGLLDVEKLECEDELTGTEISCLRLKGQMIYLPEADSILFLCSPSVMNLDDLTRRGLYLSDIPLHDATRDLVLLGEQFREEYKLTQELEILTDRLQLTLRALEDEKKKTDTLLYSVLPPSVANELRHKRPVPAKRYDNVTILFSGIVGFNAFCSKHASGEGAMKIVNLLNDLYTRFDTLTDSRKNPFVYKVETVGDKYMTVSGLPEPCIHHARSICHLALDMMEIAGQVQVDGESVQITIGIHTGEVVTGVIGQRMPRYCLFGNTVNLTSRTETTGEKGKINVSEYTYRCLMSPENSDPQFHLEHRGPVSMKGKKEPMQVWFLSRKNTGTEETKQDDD
- test protocol: sGC cellular activator assay (cGMP, HTRF), in the presence and absence of 50% human serum
- test settings: CHO cells stably expressing human sGC alpha 1/beta 1, preincubated with 40 microM ODQ; cGMP by HTRF; Table 2 does not state whether with or without 50% human serum
# EC50 per entry
Field format: number, assumed nM, no unit text.

Study these solved cases before continuing.
smiles notation | test readout | result units | experimental result
CO[C@H]1CN(c2nc(-c3cc(C)ccc3OCc3cc(C)c4c(c3)CCN(C3CCOCC3)C4)cs2)CC[C@H]1C(=O)O | EC50 | nM | 46
COC[C@H]1N(c2cccc(-c3cccc(C)c3OCc3ccc4c(c3F)CCN(C3COC3)CC4)n2)C[C@@H]2C[C@@]21C(=O)O | EC50 | nM | 7

Switching to the query record.
Sample `CO[C@H]1CN(c2cccc(-c3cccc(C)c3OCc3ccc4c(c3C)CCN(C3COC3)CC4)n2)CC[C@H]1C(=O)O` — what was its EC50?
14

---

- test settings: 24 h, pH 4.5
test readout: Solubility (pH 4.5) (μg/mL)
Field format: number, assumed μg/mL, no unit text.

Study these solved cases before continuing.
compound | result units | experimental result
COC[C@H]1N(c2cccc(-c3cccc(C)c3OCc3cc(C)c4c(c3)CCN(C3CCOC3)C4)n2)C[C@@H]2C[C@@]21C(=O)O (single isomer, unassigned) [Compound 52] | μg/mL | 93
CO[C@H]1CN(c2nc(-c3cccc(C)c3OCc3cc(C)c4c(c3)CCN(CC3COCCO3)C4)cs2)CC[C@H]1C(=O)O (single isomer, unassigned) [Compound 169] | μg/mL | 96
Cc1cc(COc2c(C)cccc2-c2cccc(N3C[C@@H]4C[C@]4(C(=O)O)C3)n2)cc2c1CN(C1CCOC1)CC2 (some centres unmarked) [Compound 26] | μg/mL | 90
Cc1c(COc2ccccc2-c2cccc(N3CC[C@@]4(C(=O)O)C[C@H]4C3)n2)ccc2c1CCN(C1CCOCC1)C2 [Compound 3] | μg/mL | 120
CO[C@@H]1CN(c2nc(-c3cccc(C)c3OCc3cc(C)c4c(c3)CCN(CC3COCCO3)C4)cs2)CC[C@@H]1C(=O)O (some centres unmarked) [Compound 176] | μg/mL | 95

Sample Cc1cc(COc2c(C)cccc2-c2cccc(N3C[C@@H]4C[C@]4(C(=O)O)C3)n2)cc2c1CN(C1CCOC1)CC2 (some centres unmarked) [Compound 25] — what was its Solubility (pH 4.5)?
89

Sample Cc1cc(COc2c(C)cccc2-c2csc(N3CC[C@@]4(C(=O)O)C[C@H]4C3)n2)cc2c1CN(CC1COCCO1)CC2 (some centres unmarked) [Compound 93] — what was its Solubility (pH 4.5)?
70

Sample CO[C@@H]1CN(c2cccc(-c3cc(C)ccc3OCc3cc(C)c4c(c3)CCN(C3CCOC3)C4)n2)CC[C@@H]1C(=O)O (some centres unmarked) [Compound 78] — what was its Solubility (pH 4.5)?
91
